Target: T1, CD45RO ECD (human)
T1 chain: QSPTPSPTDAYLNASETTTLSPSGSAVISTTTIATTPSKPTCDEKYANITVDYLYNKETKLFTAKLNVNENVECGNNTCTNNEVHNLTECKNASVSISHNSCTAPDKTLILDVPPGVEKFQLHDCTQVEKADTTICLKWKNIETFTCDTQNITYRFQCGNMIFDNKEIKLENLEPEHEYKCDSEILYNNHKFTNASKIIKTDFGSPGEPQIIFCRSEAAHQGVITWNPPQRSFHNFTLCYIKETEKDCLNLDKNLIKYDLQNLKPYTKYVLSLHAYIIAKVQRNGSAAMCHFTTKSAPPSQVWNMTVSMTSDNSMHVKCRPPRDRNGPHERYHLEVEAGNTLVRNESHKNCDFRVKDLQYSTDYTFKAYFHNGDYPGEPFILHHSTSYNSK
Assay: SPR
REPORTED ENDPOINT: Kd (nM)
Supply the numeric figure in nM, leaving out any unit text.

Input: Which measured Kd value corresponds to HAdV-D9 E3/49K (Fc fusion) GIINLNVSWGMNLTLVGPSDLPVTWYDGKGMQFCDGNTIKNPQIKHSCNQQNLTLLNADKSHERTYLGYRHDSKGKVDYKVTVIPPPPATRKPLSEPHYVTVTMGDNITLVGPSDLPVTWYDGEGNKFCDGEKVEHAEFNHTCNIQNLTLLFVNLTHNGAYIGYNKDGSDRELYEVSVKTLFQNGAGQSKVEQGNKGKPNTAQSGGKKTKTEHRNQSPKRKSTNNLQPTQLYVRPFTNVSLTGPPNGKVTWYDGELNDPCEQKYKLRTFCNQQNLTLINVSSTYDGIYYGTDEKDKANRYRIKVNTTNHKTVKIKPHTREPPAVQEKQFELQDAETDENESKIPSAT ?
Output: 0.08
